Just for reference, ChEMBL document CHEMBL1144575 is where these values come from.

Molecular target: Substance-K receptor (Cavia porcellus) (UniProt Q64077)
Sequence (whole entry): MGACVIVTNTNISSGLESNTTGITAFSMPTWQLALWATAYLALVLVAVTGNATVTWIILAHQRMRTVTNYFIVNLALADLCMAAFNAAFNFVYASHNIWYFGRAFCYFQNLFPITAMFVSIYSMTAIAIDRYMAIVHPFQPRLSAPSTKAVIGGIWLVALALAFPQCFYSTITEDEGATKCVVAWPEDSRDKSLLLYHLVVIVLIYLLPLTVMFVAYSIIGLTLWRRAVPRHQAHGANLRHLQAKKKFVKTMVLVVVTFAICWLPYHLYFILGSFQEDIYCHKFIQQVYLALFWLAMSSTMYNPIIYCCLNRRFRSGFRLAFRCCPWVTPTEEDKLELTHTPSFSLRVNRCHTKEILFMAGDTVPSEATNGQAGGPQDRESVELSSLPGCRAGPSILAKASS
Test: Antagonist activity at NK2 receptor in guinea pig trachea as inhibition of [beta-Ala8]NKA(4-10)-induced bronchoconstriction up to 1 uM
Type: functional, tissue-based
Active and inactive are the calls of the source. No cut-off for these calls is given here.
EXPERIMENTAL ENDPOINT: Activity

Known Activity results, listed for orientation:
CC(=O)Nc1cc(NC(C)=O)cc(C(=O)N(C)[C@@H](/C=C/C(=O)N[C@@H]2CCCCNC2=O)Cc2ccc(Cl)c(Cl)c2)c1: inactive
CN(C(=O)c1cc(NC(=O)CBr)cc(NC(=O)CBr)c1)[C@@H](/C=C/C(=O)N[C@@H]1CCCCNC1=O)Cc1ccc(Cl)c(Cl)c1: inactive
CN(C(=O)c1cc(N=C=S)cc(N=C=S)c1)[C@@H](/C=C/C(=O)N[C@@H]1CCCCNC1=O)Cc1ccc(Cl)c(Cl)c1: inactive
CN(C(=O)c1cc(N)cc(N)c1)[C@@H](/C=C/C(=O)N[C@@H]1CCCCNC1=O)Cc1ccc(Cl)c(Cl)c1: inactive

Item COC(=S)Nc1cc(NC(=S)OC)cc(C(=O)N(C)[C@@H](/C=C/C(=O)N[C@@H]2CCCCNC2=O)Cc2ccc(Cl)c(Cl)c2)c1 : provide Activity
inactive
